Test Target: α-Glucosidase (EC 3.2.1.20) from Saccharomyces cerevisiae (Saccharomyces cerevisiae, UniProt P53341)
Sequence (P53341 whole entry): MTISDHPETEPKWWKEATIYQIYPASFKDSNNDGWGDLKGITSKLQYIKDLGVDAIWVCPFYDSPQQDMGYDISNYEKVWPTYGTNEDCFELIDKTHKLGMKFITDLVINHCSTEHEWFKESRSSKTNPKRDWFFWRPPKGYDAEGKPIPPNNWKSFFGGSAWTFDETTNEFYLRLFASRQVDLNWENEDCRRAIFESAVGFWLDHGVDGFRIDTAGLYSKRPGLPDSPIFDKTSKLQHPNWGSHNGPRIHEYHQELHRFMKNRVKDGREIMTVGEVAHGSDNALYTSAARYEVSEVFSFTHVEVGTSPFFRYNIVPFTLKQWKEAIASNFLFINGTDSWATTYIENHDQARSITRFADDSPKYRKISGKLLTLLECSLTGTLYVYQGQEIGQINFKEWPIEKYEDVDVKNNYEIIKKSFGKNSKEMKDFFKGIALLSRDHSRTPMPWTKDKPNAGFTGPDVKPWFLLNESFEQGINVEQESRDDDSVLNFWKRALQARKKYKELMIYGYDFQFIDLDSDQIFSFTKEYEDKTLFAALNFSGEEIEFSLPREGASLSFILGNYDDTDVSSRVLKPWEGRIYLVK
Measurement Notes: α-glucosidase inhibitory assay
Type: biochemical
pIC50: −log10 of the molar value.
Parameter: pIC50

Incoming: Please look up its pIC50: O=C(OC[C@H]1OC[C@H](OC(=O)c2cc(O)c(O)c(O)c2)[C@@H](O)[C@@H]1O)c1cc(O)c(O)c(O)c1
Outgoing: 3.66

Incoming: Please look up its pIC50: O=C(O[C@H]1CO[C@H](CO)[C@@H](O)[C@@H]1O)c1cc(O)c(O)c(O)c1
Outgoing: < 3.00

Incoming: Please look up its pIC50: O=C(OC[C@H]1OC[C@H](O)[C@@H](O)[C@@H]1O)c1cc(O)c(O)c(O)c1
Outgoing: < 3.00
